B1: UFD1L (parent)
chain: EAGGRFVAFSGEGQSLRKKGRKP

Variants of: B1
Test description: protein stability index of a GFP-peptide fusion (GPS, HEK-293T) (PSI 1-6); higher = more stable;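 further: lentivirally expressed fusions sorted by FACS into six bins by GFP to DsRed ratio, PSI derived from sequencing read proportions per bin multiplied by bin number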
Condition summary: c terminus: native
Property: protein stability index
API note: the answer field is a bare number with no unit suffix.

1) EAGGKFVAFSGEGQSLRKKGRKP [R5K] = 2.01
2) EAGGRFVAFSGEKQSLRKKGRKP [G13K] = 2.03

Alright, here's another variant for you.
Prompt: // protein stability index lookup, key: EAGGRFVAFSGEGQSLRKQGRKP [K19Q]
Completion: 2.05
